Reference source: patent US5622828

- tested target: T1, secretory phospholipase A2 (sPLA2) (Homo sapiens, UniProt P14555 P14555:21-144)
- T1 sequence: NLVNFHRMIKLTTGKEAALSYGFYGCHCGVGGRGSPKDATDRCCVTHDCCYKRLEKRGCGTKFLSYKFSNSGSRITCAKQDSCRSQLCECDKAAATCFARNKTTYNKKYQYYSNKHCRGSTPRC
- assay name: filter; biphasic, Kd2 310 nM, mole fraction 0.25; TBSC, 37 C
- settings: tags: supplied by Eli Lilly
- Procedure: The nitrocellulose filter partitioning method was used as described in SELEX Patent Applications to determine the affinity of RNA ligands for sPLA_2 and for other promins. […] The filters were air-dried and counted in a Beckman liquid scintillation counter without fluor. The dissociation constants for representative members of families I–VI, orphan and other ligands were determined by nitrocellulose filter binding experiments and are listed in Table III. […]
measured property: pKd
Answers are plain numbers, as −log10 of the molar value.

Query: Look up pKd: 9t (ssRNA) RNA: GGGAGCUCAGAAUAAACGCUCAACACGGGGGUGGGUGGGUGGCCGAGCGCUUGUUCGACAUGAGGCCCGGAUCCGGC
Response: 7.40
